Measured ED50, listed per entry for reference.
# System: Streptococcus pyogenes
# assay: mouse protection, experimentally-induced infection
# Format: in vivo
# condition.description: mice infected with Streptococcus pyogenes, two doses
Your answer is read as mg/kg/2, so omit the unit and give the number.

compound	ED50 / mg/kg/2
CNC(CC(C)C)C(=O)NC1C(=O)NC(CC(N)=O)C(=O)NC2C(=O)NC3C(=O)NC(C(=O)NC(C(=O)O)c4cc(O)cc(O)c4-c4cc3ccc4O)C(OC3CC(C)(N)C(O)C(C)O3)c3ccc(c(Cl)c3)Oc3cc2cc(c3OC2OC(CO)C(O)C(O)C2OC2CC(C)(NCc3ccc(Cc4ccccc4)c(OC)c3)C(O)C(C)O2)Oc2ccc(cc2Cl)C1O (stereo not drawn)	0.12
CNC(CC(C)C)C(=O)NC1C(=O)NC(CC(N)=O)C(=O)NC2C(=O)NC3C(=O)NC(C(=O)NC(C(=O)O)c4cc(O)cc(O)c4-c4cc3ccc4O)C(OC3CC(C)(N)C(O)C(C)O3)c3ccc(c(Cl)c3)Oc3cc2cc(c3OC2OC(CO)C(O)C(O)C2OC2CC(C)(NCc3ccc4c(c3)Cc3ccccc3-4)C(O)C(C)O2)Oc2ccc(cc2Cl)C1O (stereo not drawn)	0.034
CN[C@H](CC(C)C)C(=O)N[C@H]1C(=O)N[C@@H](CC(N)=O)C(=O)N[C@H]2C(=O)N[C@H]3C(=O)N[C@H](C(=O)N[C@H](C(=O)O)c4cc(O)cc(O)c4-c4cc3ccc4O)[C@H](O[C@H]3C[C@](C)(N)[C@@H](O)[C@H](C)O3)c3ccc(cc3)Oc3cc2cc(c3O[C@@H]2O[C@H](CO)[C@@H](O)[C@H](O)[C@H]2O[C@H]2C[C@](C)(N)[C@@H](O)[C@H](C)O2)Oc2ccc(cc2Cl)[C@H]1O [Compound A82846A, A82846A, reference compound]	0.084
CNC(CC(C)C)C(=O)NC1C(=O)NC(CC(N)=O)C(=O)NC2C(=O)NC3C(=O)NC(C(=O)NC(C(=O)O)c4cc(O)cc(O)c4-c4cc3ccc4O)C(OC3CC(C)(N)C(O)C(C)O3)c3ccc(c(Cl)c3)Oc3cc2cc(c3OC2OC(CO)C(O)C(O)C2OC2CC(C)(NCc3ccc(SC)cc3)C(O)C(C)O2)Oc2ccc(cc2Cl)C1O (stereo not drawn)	0.082

Now look at this one.
Need ED50, item CNC(CC(C)C)C(=O)NC1C(=O)NC(CC(N)=O)C(=O)NC2C(=O)NC3C(=O)NC(C(=O)NC(C(=O)O)c4cc(O)cc(O)c4-c4cc3ccc4O)C(OC3CC(C)(N)C(O)C(C)O3)c3ccc(c(Cl)c3)Oc3cc2cc(c3OC2OC(CO)C(O)C(O)C2OC2CC(C)(NCc3cc(OCc4ccccc4)ccc3OC)C(O)C(C)O2)Oc2ccc(cc2Cl)C1O (stereo not drawn) 0.057
